- System: guinea pig Dopamine Transporter (DAT), gene 100714898
- Assay comment: NVS_TR_gDAT: NovaScreen (NVS) Transporter Assay for guinea pig Dopamine Transporter (DAT) (AID 2283369);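 note: active compounds lower bound radioligand signal relative to DMSO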
Results filed as inconclusive are left out. Active and inactive are the calls of the source. Rule for the calls: active = hit-call score of the fitted dose curve at least 0.9, where 1 is the maximum; inconclusive = response in the unintended direction; inactive = score below 0.9.
Log the outcome using a class from active, inactive

• CN(c1nccc(=O)[nH]1)C1CCN(c2nc3ccccc3n2Cc2ccc(F)cc2)CC1 = active
• CC(C)(C)CC(C)(C)c1ccc(OCCOCC[N+](C)(C)Cc2ccccc2)cc1 = active
• ClC(c1ccccc1)(c1ccccc1)c1ccccc1 = inactive

Lab log entry: CCN(CCC#N)c1ccc(N=Nc2ccc([N+](=O)[O-])cc2)cc1 — outcome as called in the assay?
inactive
